This collection of values is drawn from paper PMC6131205.

- Tested target: Fms1 (Saccharomyces cerevisiae, UniProt P50264)
- Sequence (P50264 whole entry): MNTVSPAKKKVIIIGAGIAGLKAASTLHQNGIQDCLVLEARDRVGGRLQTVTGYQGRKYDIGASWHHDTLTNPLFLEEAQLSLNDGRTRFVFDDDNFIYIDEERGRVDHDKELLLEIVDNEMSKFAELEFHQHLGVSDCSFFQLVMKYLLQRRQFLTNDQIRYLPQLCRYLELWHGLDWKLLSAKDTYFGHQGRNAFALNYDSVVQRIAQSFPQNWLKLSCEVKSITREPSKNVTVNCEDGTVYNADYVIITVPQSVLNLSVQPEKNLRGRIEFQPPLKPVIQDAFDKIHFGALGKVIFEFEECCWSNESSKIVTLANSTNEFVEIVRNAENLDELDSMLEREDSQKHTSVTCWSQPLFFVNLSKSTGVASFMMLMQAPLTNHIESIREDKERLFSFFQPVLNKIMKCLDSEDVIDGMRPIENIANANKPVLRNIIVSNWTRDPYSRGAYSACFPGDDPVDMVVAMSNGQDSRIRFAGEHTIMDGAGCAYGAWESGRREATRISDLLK
- Experimental protocol: Fms1 cleavage of 1 mM Spd supplemented with aldehydes (E1/E2 regioselectivity)
- Type: biochemical, yeast
- Set-up: made in house
- Assay context: fixed 1 mM Spd, aldehyde 25-1000 μM, pH 9.0, 25°C
The reader will find reported E1 cleavage (Put) kcat values listed item by item below.

Some solved entries appear below for comparison.
# Compound structure, Value kind, Result
data = [
    ("Cc1ncc(CO)c(C=O)c1O", "E1 cleavage (Put) kcat", "1.13 ± 0.03 s⁻¹"),
    ("O=Cc1ccncc1", "E1 cleavage (Put) kcat", "7.4 ± 0.2 s⁻¹"),
    ("O=Cc1ccccc1O", "E1 cleavage (Put) kcat", "0.54 ± 0.01 s⁻¹"),
    ("O=Cc1cccc(O)c1", "E1 cleavage (Put) kcat", "0.31 ± 0.01 s⁻¹"),
    ("O=Cc1ccc(O)cc1", "E1 cleavage (Put) kcat", "0.11 ± 0.00 s⁻¹"),
]

Lab note: need E1 cleavage (Put) kcat for O=CC1CCCCC1 on Fms1 (Saccharomyces cerevisiae, UniProt P50264), anyone have it?
1.41 ± 0.04 s⁻¹

Can you check O=Cc1cccnc1 next?
5.5 ± 0.1 s⁻¹

###

- Tested target: Fms1 (Saccharomyces cerevisiae, UniProt P50264)
- Experimental protocol: Fms1 cleavage of 1 mM Spd supplemented with aldehydes (E1/E2 regioselectivity);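 also: recombinant yeast Fms1 reactions in Glycine-NaOH buffer, with products Put and DAP quantified by HPLC using post-column o-phthalaldehyde derivatization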
- Format: biochemical, yeast
- Design: made in house
- Assay context: fixed 1 mM Spd, aldehyde 25-1000 μM, pH 9.0, 25°C
Quick list: E2 cleavage (DAP) kcat per entry.
// return numeric value only (unit: s⁻¹, not printed)

# count of solved cases: 6
# Compound structure, Uom, E2 cleavage (DAP) kcat
data = [
    ("O=Cc1ccc(O)cc1", "s⁻¹", 0.03),
    ("O=Cc1ccccn1", "s⁻¹", 0.49),
    ("O=Cc1cccc(O)c1", "s⁻¹", 0.47),
    ("O=Cc1ccccc1O", "s⁻¹", 0.08),
    ("O=Cc1ccccc1[N+](=O)[O-]", "s⁻¹", 0.03),
    ("O=Cc1ccncc1", "s⁻¹", 0.19),
]

Kindly review the next molecule as well.
# E2 cleavage (DAP) kcat lookup, item O=Cc1cccnc1
0.48

###

- Tested target: SMOX (Homo sapiens)
- Sequence (Q9NWM0 whole entry): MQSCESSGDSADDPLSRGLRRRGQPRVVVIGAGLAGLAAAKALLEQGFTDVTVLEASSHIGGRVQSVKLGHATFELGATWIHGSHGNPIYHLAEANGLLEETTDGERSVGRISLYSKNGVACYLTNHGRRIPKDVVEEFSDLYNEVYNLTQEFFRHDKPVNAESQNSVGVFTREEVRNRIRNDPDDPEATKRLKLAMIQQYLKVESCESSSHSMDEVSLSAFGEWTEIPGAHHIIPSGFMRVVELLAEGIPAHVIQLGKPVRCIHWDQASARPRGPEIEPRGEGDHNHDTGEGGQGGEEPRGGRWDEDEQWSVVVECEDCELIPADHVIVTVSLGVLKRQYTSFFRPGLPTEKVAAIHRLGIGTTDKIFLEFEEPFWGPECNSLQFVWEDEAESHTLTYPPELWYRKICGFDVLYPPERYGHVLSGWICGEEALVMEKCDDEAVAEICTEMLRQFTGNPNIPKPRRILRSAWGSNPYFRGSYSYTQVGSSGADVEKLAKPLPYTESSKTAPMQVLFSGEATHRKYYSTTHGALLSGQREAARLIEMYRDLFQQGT
- Experimental protocol: Inhibition of SMOX (Ki, peroxidase-coupled fluorescence, Spm as substrate)
- Assay context: Ki (best-fit value, noncompetitive inhibition), GraphPad Prism global fit, supplement
Measured pKi, listed per entry.
The read-out pKi is expressed as -log10 of concentration in moles per litre.

The following compounds have reported results that may help.
# Compound, pKi
data = [
    ("C[C@H](CCNCCCCN)NCc1ccccc1 [Bn-(R)-MeSpd]", 3.36),
    ("C[C@H](CCNCCCCN)NC(=O)c1ccncc1 [P4-(R)-MeSpd]", 2.89),
    ("C[C@@H](CCNCCCCN)NC(=O)c1ccccc1 [Bz-(S)-MeSpd]", 3.07),
    ("C[C@H](CCNCCCCN)NC(=O)c1ccccc1 [Bz-(R)-MeSpd]", 3.23),
]

State the recorded pKi for this entry: C[C@@H](CCNCCCCN)NC(=O)c1ccncc1 [P4-(S)-MeSpd]
2.99

C[C@@H](CCNCCCCN)NCc1ccccc1 [Bn-(S)-MeSpd] , same question.
3.81
